# Target: Urease subunit alpha/Urease subunit beta (Helicobacter pylori (strain ATCC 700392 / 26695) (Campylobacterpylori))
# Run Description: Inhibition of Helicobacter pylori urease
Parameter Measured: IC50
Hi, when you answer, please include the unit after the number. Thanks!

Query (compound): O=c1c(O)c(-c2ccc(O)c(O)c2)oc2cc(O)cc(O)c12 ; field requested: IC50
11.2 µM

* * *

# Target: Urease subunit alpha/Urease subunit beta (Helicobacter pylori (strain ATCC 700392 / 26695) (Campylobacterpylori), UniProt P69996)
# Sequence (P69996 whole entry): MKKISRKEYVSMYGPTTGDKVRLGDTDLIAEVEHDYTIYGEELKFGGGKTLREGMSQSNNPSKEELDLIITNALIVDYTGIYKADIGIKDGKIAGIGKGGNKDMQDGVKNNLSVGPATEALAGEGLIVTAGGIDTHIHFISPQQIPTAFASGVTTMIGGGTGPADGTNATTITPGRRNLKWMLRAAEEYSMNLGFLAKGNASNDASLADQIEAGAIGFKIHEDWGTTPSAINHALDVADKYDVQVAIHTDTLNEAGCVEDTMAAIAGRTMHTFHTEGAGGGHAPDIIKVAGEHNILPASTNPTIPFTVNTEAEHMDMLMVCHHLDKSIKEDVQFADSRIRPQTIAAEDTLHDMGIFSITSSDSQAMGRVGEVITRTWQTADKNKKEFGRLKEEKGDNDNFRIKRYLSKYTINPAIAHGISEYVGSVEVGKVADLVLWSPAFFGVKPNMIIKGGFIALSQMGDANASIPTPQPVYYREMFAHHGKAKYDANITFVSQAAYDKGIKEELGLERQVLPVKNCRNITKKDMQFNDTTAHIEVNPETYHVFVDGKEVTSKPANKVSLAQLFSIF
# Sequence (P14916 whole entry, further chain): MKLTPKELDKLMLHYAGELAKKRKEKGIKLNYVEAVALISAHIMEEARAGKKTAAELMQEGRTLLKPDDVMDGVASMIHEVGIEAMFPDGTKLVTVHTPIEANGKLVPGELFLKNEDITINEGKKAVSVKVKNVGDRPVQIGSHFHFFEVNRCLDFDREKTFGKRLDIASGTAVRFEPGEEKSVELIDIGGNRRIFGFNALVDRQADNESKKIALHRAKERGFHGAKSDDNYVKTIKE
# Run Description: Inhibition of urease extracted from Helicobacter pylori ATCC 43504 assessed as ammonia production preincubated for 1.5 hrs by indophenol-based method
pIC50: −log10 of the molar value.
pIC50 vs 6: at or above is T, below is F.

Reported pIC50 reaches at least 6 for O=C(CC(O)c1ccc(Cl)cc1)NO (racemic) ?
F

Reported pIC50 reaches at least 6 for O=C(CC(O)c1ccccc1F)NO (racemic) ?
F

Reported pIC50 reaches at least 6 for O=C(CC(O)c1cccc(F)c1)NO (racemic) ?
F

Reported pIC50 reaches at least 6 for CN(C)c1ccc(C(O)CC(=O)NO)cc1 (racemic) ?
F

Reported pIC50 reaches at least 6 for O=C(CC(O)c1cccc(Cl)c1)NO (racemic) ?
T

Reported pIC50 reaches at least 6 for COc1ccccc1C(O)CC(=O)NO (racemic) ?
F

Reported pIC50 reaches at least 6 for O=C(CC(O)c1cccc(Cl)c1Cl)NO (racemic) ?
T
